Item-by-item account of inhibition
molecular target: Mitogen-activated protein kinase 3 (Homo sapiens); experiment: Inhibition of ERK1 (unknown origin) at 10 uM
Record the result as number plus unit.

Cn1c(=O)c(Oc2c(Cl)cccc2Cl)cc2cnc(NC3CCOCC3)nc21	4%
Cn1c(=O)c(Oc2ccc(F)cc2F)cc2cnc(NCCc3ccccn3)nc21	5%
CN1CCN(c2ccc(Nc3ncc4cc(Oc5ccc(F)cc5F)c(=O)n(C)c4n3)cc2)CC1	5%
CN1CCN(c2ccc(Nc3ncc4cc(Oc5c(Cl)cccc5Cl)c(=O)n(C)c4n3)cc2)CC1	10%
Cn1c(=O)c(Oc2ccc(F)cc2F)cc2cnc(Nc3ccc(N4CCC(O)CC4)cc3)nc21	9%
Cn1c(=O)c(Oc2ccc(F)cc2F)cc2cnc(Nc3ccc(N4CCCCC4)cc3)nc21	6%
CN(C)CCNc1ncc2cc(Oc3ccc(F)cc3F)c(=O)n(C)c2n1	5%
Cn1c(=O)c(Oc2ccc(F)cc2F)cc2cnc(NC3CCN(S(C)(=O)=O)CC3)nc21	0%

Which inhibition value is on record for `CN1CCN(CCCNc2ncc3cc(Oc4ccc(F)cc4F)c(=O)n(C)c3n2)CC1` ?
0%

###

molecular target: Serine/threonine-protein kinase Chk1 (Homo sapiens) (UniProt O14757); test: Inhibition of CHK1 (unknown origin) at 10 uM
Sequence (O14757 whole entry): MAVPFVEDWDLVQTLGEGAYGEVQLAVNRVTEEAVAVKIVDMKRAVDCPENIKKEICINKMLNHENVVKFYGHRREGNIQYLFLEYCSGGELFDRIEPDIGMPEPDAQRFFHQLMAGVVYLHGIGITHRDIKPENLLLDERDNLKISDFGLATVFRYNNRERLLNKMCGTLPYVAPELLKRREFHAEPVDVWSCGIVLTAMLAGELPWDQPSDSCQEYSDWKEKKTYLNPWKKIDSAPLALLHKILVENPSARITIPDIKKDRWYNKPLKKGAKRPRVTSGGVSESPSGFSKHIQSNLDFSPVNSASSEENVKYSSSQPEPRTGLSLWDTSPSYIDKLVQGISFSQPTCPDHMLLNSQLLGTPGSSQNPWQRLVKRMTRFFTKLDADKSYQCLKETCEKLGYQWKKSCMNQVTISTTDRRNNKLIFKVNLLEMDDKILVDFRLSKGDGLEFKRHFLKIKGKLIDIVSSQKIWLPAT
Test readout: inhibition (%)
Answer with a number only, understood to be in %.

Study these solved cases before continuing.
CN1CCN(CCCNc2ncc3cc(Oc4ccc(F)cc4F)c(=O)n(C)c3n2)CC1	8
Cn1c(=O)c(Oc2ccc(F)cc2F)cc2cnc(NC3CCN(S(C)(=O)=O)CC3)nc21	4
Cn1c(=O)c(Oc2c(Cl)cccc2Cl)cc2cnc(NC3CCOCC3)nc21	8
CN(C)CCNc1ncc2cc(Oc3ccc(F)cc3F)c(=O)n(C)c2n1	3
Cn1c(=O)c(Oc2ccc(F)cc2F)cc2cnc(NCCc3ccccn3)nc21	14
CN1CCN(c2ccc(Nc3ncc4cc(Oc5ccc(F)cc5F)c(=O)n(C)c4n3)cc2)CC1	4
Cn1c(=O)c(Oc2ccc(F)cc2F)cc2cnc(Nc3ccc(N4CCC(O)CC4)cc3)nc21	-1
CN1CCN(c2ccc(Nc3ncc4cc(Oc5c(Cl)cccc5Cl)c(=O)n(C)c4n3)cc2)CC1	2

Please look at the following compound next.
Which inhibition value is on record for `Cn1c(=O)c(Oc2ccc(F)cc2F)cc2cnc(Nc3ccc(N4CCCCC4)cc3)nc21` ?
2

###

target: Proto-oncogene tyrosine-protein kinase receptor Ret (Homo sapiens); test: Inhibition of RET (unknown origin) at 10 uM
Item-by-item account of inhibition
Answer with a number only, understood to be in %.

Study these solved cases before continuing.
CN(C)CCNc1ncc2cc(Oc3ccc(F)cc3F)c(=O)n(C)c2n1	1
Cn1c(=O)c(Oc2c(Cl)cccc2Cl)cc2cnc(NC3CCOCC3)nc21	2
Cn1c(=O)c(Oc2ccc(F)cc2F)cc2cnc(NC3CCN(S(C)(=O)=O)CC3)nc21	0
Cn1c(=O)c(Oc2ccc(F)cc2F)cc2cnc(NCCc3ccccn3)nc21	11
Cn1c(=O)c(Oc2ccc(F)cc2F)cc2cnc(Nc3ccc(N4CCC(O)CC4)cc3)nc21	100

Which inhibition value is on record for `CN1CCN(c2ccc(Nc3ncc4cc(Oc5ccc(F)cc5F)c(=O)n(C)c4n3)cc2)CC1` ?
98

Which inhibition value is on record for `CN1CCN(CCCNc2ncc3cc(Oc4ccc(F)cc4F)c(=O)n(C)c3n2)CC1` ?
24

Which inhibition value is on record for `CN1CCN(c2ccc(Nc3ncc4cc(Oc5c(Cl)cccc5Cl)c(=O)n(C)c4n3)cc2)CC1` ?
43

Which inhibition value is on record for `Cn1c(=O)c(Oc2ccc(F)cc2F)cc2cnc(Nc3ccc(N4CCCCC4)cc3)nc21` ?
46

Hello, the source for this data is ChEMBL document CHEMBL3745672, in case you need it.
